Label satisfied for high-side melting point (at or above 90 °C) and not satisfied for low-side melting point (below it).

Worked examples follow.
{"columns": ["molecule", "group"],
 "data": [
  ["O=Cc1ccc[nH]1", "not satisfied"],
  ["N#Cc1ccc2ccccc2c1", "not satisfied"],
  ["CI", "not satisfied"],
  ["CC(=O)C1=CCCCC1", "not satisfied"],
  ["COc1ccccc1N=Nc1ccccc1", "not satisfied"]
]}

Prompt line: Threshold query (melting point >= 90 °C) on Cc1cc(C(=O)NNCc2ccccc2)no1
Response line: satisfied

Prompt line: Next: Cl.NCC(F)(F)F
Response line: satisfied

Prompt line: Next: CC(C)(O)C(Cl)(Cl)Cl
Response line: satisfied

Prompt line: Next: CC(=O)O.CCCCCCCCCCCCNC(=N)N
Response line: satisfied

Cited source: the OPERA property sets (Mansouri et al. 2018)
